Property: melting point; scope: individual compounds

The cases that follow already have their melting point on record.
* O=C(Oc1cc(Cl)ccc1Cl)c1cc2ccccc2oc1=O | 189 to 192 °C
* Cc1ccc2oc(=O)c(C(=O)Oc3cc(Cl)ccc3Cl)cc2c1 | 175 to 179 °C
* CC(=O)OCc1ccc2oc(=O)c(C(=O)Oc3cc(F)ccc3[N+](=O)[O-])cc2c1 | 157 to 161 °C
* O=C(Oc1cc(F)ccc1Br)c1cc2cc(CCl)ccc2oc1=O | 203 to 205 °C

We now examine a further compound.
CC(=O)OCc1ccc2oc(=O)c(C(=O)Oc3cc(F)ccc3F)cc2c1 yielded melting point of 137 to 139 °C
